experiment: molar heat capacity at constant pressure; conditions: 353.15 K; 101.33 kPa; Liquid; Large sample (1 g) DSC
quantity-measured: molar heat capacity at constant pressure (J/K/mol)
Please reply with the bare figure in J/K/mol and do not write the unit itself.

Here's what some known entries look like.
[[record]]
molecule = "CCCC[P+](CCCC)(CCCC)CCCC.N[C@@H](CS)C(=O)[O-] [tetrabutylphosphonium L-cysteinate]"
reported_measurement = 1008.2

[[record]]
molecule = "CCCC[N+](C)(CCCC)CCCC.NCCS(=O)(=O)[O-] [N,N-dibutyl-N-methyl-1-butanaminium 2-aminoethanesulfonate]"
reported_measurement = 882.4

[[record]]
molecule = "CCCC[P+](CCCC)(CCCC)CCCC.O=C([O-])[C@@H]1CCCN1 [tetrabutylphosphonium L-prolinate]"
reported_measurement = 925.8

[[record]]
molecule = "CCCC[N+](C)(CCCC)CCCC.N[C@@H](CO)C(=O)[O-] [N,N-dibutyl-N-methylbutanaminium L-serinate]"
reported_measurement = 672.9

[[record]]
molecule = "CCCC[P+](CCCC)(CCCC)CCCC.NCCCC[C@H](N)C(=O)[O-] [tetrabutylphosphonium L-lysinate]"
reported_measurement = 1096.5


Please look at this molecule and report its molar heat capacity at constant pressure: CCCC[P+](CCCC)(CCCC)CCCC.N[C@@H](CO)C(=O)[O-] [tetrabutylphosphonium L-serinate] 807.8

Complete the entry with molar heat capacity at constant pressure for CCCC[N+](C)(CCCC)CCCC.C[C@@H](O)[C@H](N)C(=O)[O-] [N,N-dibutyl-N-methyl-1-butanaminium L-threoninate] 811.5

###

details: 323.15 K; 101.33 kPa; Liquid
Examples of compounds with documented viscosity follow.
The answer is to be given in mPa·s; state only the numeric part.

Reference set (3 entries):
[[record]]
compound = "CCCC[P+](CCCC)(CCCC)CCCC.NCCCC[C@H](N)C(=O)[O-] [tetrabutylphosphonium L-lysinate]"
reported_measurement = 149.7

[[record]]
compound = "CCCC[N+](C)(CCCC)CCCC.NCCS(=O)(=O)[O-] [N,N-dibutyl-N-methyl-1-butanaminium 2-aminoethanesulfonate]"
reported_measurement = 716

[[record]]
compound = "CCCC[P+](CCCC)(CCCC)CCCC.O=C([O-])[C@@H]1CCCN1 [tetrabutylphosphonium L-prolinate]"
reported_measurement = 241.3


Give a short answer stating reported viscosity for CCCC[P+](CCCC)(CCCC)CCCC.N[C@@H](CS)C(=O)[O-] [tetrabutylphosphonium L-cysteinate] . 397.4

###

Reported mass density values for the following molecules.
details: 323.15 K; 101.33 kPa; Liquid; Vibrating tube method
I only need the number, in kg/m3, no unit after it.

Some entries whose results are on file:
[[record]]
molecule = "CCCC[P+](CCCC)(CCCC)CCCC.NCCCC[C@H](N)C(=O)[O-] [tetrabutylphosphonium L-lysinate]"
quantity_measured = "mass density"
reported_measurement = 952.3

[[record]]
molecule = "CC(C)[C@H](N)C(=O)[O-].CCCC[P+](CCCC)(CCCC)CCCC [tetrabutylphosphonium L-valinate]"
quantity_measured = "mass density"
reported_measurement = 926

[[record]]
molecule = "CCCC[P+](CCCC)(CCCC)CCCC.C[C@@H](O)[C@H](N)C(=O)[O-] [tetrabutylphosphonium L-threoninate]"
quantity_measured = "mass density"
reported_measurement = 964.6

[[record]]
molecule = "CCCC[N+](C)(CCCC)CCCC.NCCS(=O)(=O)[O-] [N,N-dibutyl-N-methyl-1-butanaminium 2-aminoethanesulfonate]"
quantity_measured = "mass density"
reported_measurement = 1035.7

[[record]]
molecule = "CCCC[N+](C)(CCCC)CCCC.NCCCC[C@H](N)C(=O)[O-] [N,N-dibutyl-N-methyl-1-butanaminium L-lysinate]"
quantity_measured = "mass density"
reported_measurement = 964.7

[[record]]
molecule = "CCCC[N+](C)(CCCC)CCCC.C[C@@H](O)[C@H](N)C(=O)[O-] [N,N-dibutyl-N-methyl-1-butanaminium L-threoninate]"
quantity_measured = "mass density"
reported_measurement = 983.7


# context switch: different molecule, same mass density
Please give measured mass density of the following entry: CCCC[P+](CCCC)(CCCC)CCCC.N[C@@H](CS)C(=O)[O-] [tetrabutylphosphonium L-cysteinate] 1017.8

###

Reported Glass transition temperature values for the following compounds.
settings: Glass; DTA
Numeric only. Scale: °C

[[record]]
compound = "CCCC[P+](CCCC)(CCCC)CCCC.NCCCC[C@H](N)C(=O)[O-] [tetrabutylphosphonium L-lysinate]"
quantity_measured = "Glass transition temperature"
reported_measurement = -66.7

[[record]]
compound = "CCCC[P+](CCCC)(CCCC)CCCC.C[C@@H](O)[C@H](N)C(=O)[O-] [tetrabutylphosphonium L-threoninate]"
quantity_measured = "Glass transition temperature"
reported_measurement = -60.72

[[record]]
compound = "CC(C)[C@H](N)C(=O)[O-].CCCC[P+](CCCC)(CCCC)CCCC [tetrabutylphosphonium L-valinate]"
quantity_measured = "Glass transition temperature"
reported_measurement = -65.56


Note Glass transition temperature for the compound shown: CCCC[N+](C)(CCCC)CCCC.N[C@@H](CO)C(=O)[O-] [N,N-dibutyl-N-methylbutanaminium L-serinate] -50.59

###

conditions: 303.15 K; 101.33 kPa; Liquid
quantity-measured: viscosity (mPa·s)
The reply should be a number in mPa·s, with the unit left off.

Solved entries:
[[record]]
molecule = "CCCC[P+](CCCC)(CCCC)CCCC.N[C@@H](CO)C(=O)[O-] [tetrabutylphosphonium L-serinate]"
reported_measurement = 778.4

[[record]]
molecule = "CCCC[P+](CCCC)(CCCC)CCCC.O=C([O-])[C@@H]1CCCN1 [tetrabutylphosphonium L-prolinate]"
reported_measurement = 1101

[[record]]
molecule = "CCCC[P+](CCCC)(CCCC)CCCC.N[C@@H](CS)C(=O)[O-] [tetrabutylphosphonium L-cysteinate]"
reported_measurement = 1866


Attention now turns to another entry.
Read the entry CCCC[P+](CCCC)(CCCC)CCCC.C[C@@H](O)[C@H](N)C(=O)[O-] [tetrabutylphosphonium L-threoninate] and write its reported viscosity. 519.8

###

assay: molar heat capacity at constant pressure; conditions: 323.15 K; 101.33 kPa; Liquid; Large sample (1 g) DSC
± gives the expanded uncertainty stated by the source.
quantity-measured: molar heat capacity at constant pressure

[[record]]
compound = "CCCC[P+](CCCC)(CCCC)CCCC.N[C@@H](CO)C(=O)[O-] [tetrabutylphosphonium L-serinate]"
quantity_measured = "molar heat capacity at constant pressure"
reported_measurement = "776.5 ± 78 J/K/mol"

[[record]]
compound = "CC(C)[C@H](N)C(=O)[O-].CCCC[P+](CCCC)(CCCC)CCCC [tetrabutylphosphonium L-valinate]"
quantity_measured = "molar heat capacity at constant pressure"
reported_measurement = "771.5 ± 78 J/K/mol"

[[record]]
compound = "CCCC[N+](C)(CCCC)CCCC.NCCCC[C@H](N)C(=O)[O-] [N,N-dibutyl-N-methyl-1-butanaminium L-lysinate]"
quantity_measured = "molar heat capacity at constant pressure"
reported_measurement = "861.2 ± 87 J/K/mol"

[[record]]
compound = "CCCC[P+](CCCC)(CCCC)CCCC.C[C@@H](O)[C@H](N)C(=O)[O-] [tetrabutylphosphonium L-threoninate]"
quantity_measured = "molar heat capacity at constant pressure"
reported_measurement = "1012.6 ± 100 J/K/mol"

[[record]]
compound = "CCCC[P+](CCCC)(CCCC)CCCC.NCCCC[C@H](N)C(=O)[O-] [tetrabutylphosphonium L-lysinate]"
quantity_measured = "molar heat capacity at constant pressure"
reported_measurement = "1040.3 ± 110 J/K/mol"


Specify reported molar heat capacity at constant pressure for the compound shown: CCCC[N+](C)(CCCC)CCCC.NCCS(=O)(=O)[O-] [N,N-dibutyl-N-methyl-1-butanaminium 2-aminoethanesulfonate] 853.2 ± 86 J/K/mol

Tell me its molar heat capacity at constant pressure given CCCC[P+](CCCC)(CCCC)CCCC.N[C@@H](CS)C(=O)[O-] [tetrabutylphosphonium L-cysteinate] as the entry. 959.6 ± 97 J/K/mol

Quick one: give measured molar heat capacity at constant pressure for CCCC[N+](C)(CCCC)CCCC.N[C@@H](CO)C(=O)[O-] [N,N-dibutyl-N-methylbutanaminium L-serinate] 651 ± 66 J/K/mol

Please indicate molar heat capacity at constant pressure recorded for CCCC[P+](CCCC)(CCCC)CCCC.O=C([O-])[C@@H]1CCCN1 [tetrabutylphosphonium L-prolinate] 879.7 ± 89 J/K/mol

Fill in molar heat capacity at constant pressure for record CCCC[P+](CCCC)(CCCC)CCCC.NCCS(=O)(=O)[O-] [tetrabutylphosphonium 2-aminoethanesulfonate] 1028.4 ± 100 J/K/mol

Kindly indicate its recorded molar heat capacity at constant pressure. Item: CCCC[N+](C)(CCCC)CCCC.C[C@@H](O)[C@H](N)C(=O)[O-] [N,N-dibutyl-N-methyl-1-butanaminium L-threoninate] 777.4 ± 78 J/K/mol

###

assay: molar heat capacity at constant pressure; details: 363.15 K; 101.33 kPa; Liquid; Large sample (1 g) DSC
Parameter molar heat capacity at constant pressure: see the listing below.
// note: answer is a bare numeric in J/K/mol

Sample records with molar heat capacity at constant pressure:
[[record]]
compound = "CCCC[P+](CCCC)(CCCC)CCCC.C[C@@H](O)[C@H](N)C(=O)[O-] [tetrabutylphosphonium L-threoninate]"
quantity_measured = "molar heat capacity at constant pressure"
reported_measurement = 1097.2

[[record]]
compound = "CCCC[N+](C)(CCCC)CCCC.NCCCC[C@H](N)C(=O)[O-] [N,N-dibutyl-N-methyl-1-butanaminium L-lysinate]"
quantity_measured = "molar heat capacity at constant pressure"
reported_measurement = 925.1

[[record]]
compound = "CCCC[N+](C)(CCCC)CCCC.C[C@@H](O)[C@H](N)C(=O)[O-] [N,N-dibutyl-N-methyl-1-butanaminium L-threoninate]"
quantity_measured = "molar heat capacity at constant pressure"
reported_measurement = 821.1

[[record]]
compound = "CCCC[N+](C)(CCCC)CCCC.NCCS(=O)(=O)[O-] [N,N-dibutyl-N-methyl-1-butanaminium 2-aminoethanesulfonate]"
quantity_measured = "molar heat capacity at constant pressure"
reported_measurement = 891.5

[[record]]
compound = "CCCC[P+](CCCC)(CCCC)CCCC.NCCCC[C@H](N)C(=O)[O-] [tetrabutylphosphonium L-lysinate]"
quantity_measured = "molar heat capacity at constant pressure"
reported_measurement = 1111.5

[[record]]
compound = "CCCC[P+](CCCC)(CCCC)CCCC.O=C([O-])[C@@H]1CCCN1 [tetrabutylphosphonium L-prolinate]"
quantity_measured = "molar heat capacity at constant pressure"
reported_measurement = 939.4

[[record]]
compound = "CCCC[P+](CCCC)(CCCC)CCCC.N[C@@H](CS)C(=O)[O-] [tetrabutylphosphonium L-cysteinate]"
quantity_measured = "molar heat capacity at constant pressure"
reported_measurement = 1021.5

[[record]]
compound = "CC(C)[C@H](N)C(=O)[O-].CCCC[P+](CCCC)(CCCC)CCCC [tetrabutylphosphonium L-valinate]"
quantity_measured = "molar heat capacity at constant pressure"
reported_measurement = 810.9

[[record]]
compound = "CCCC[P+](CCCC)(CCCC)CCCC.NCCS(=O)(=O)[O-] [tetrabutylphosphonium 2-aminoethanesulfonate]"
quantity_measured = "molar heat capacity at constant pressure"
reported_measurement = 1088.6

[[record]]
compound = "CCCC[N+](C)(CCCC)CCCC.N[C@@H](CO)C(=O)[O-] [N,N-dibutyl-N-methylbutanaminium L-serinate]"
quantity_measured = "molar heat capacity at constant pressure"
reported_measurement = 680.8


# return recorded molar heat capacity at constant pressure for entry CCCC[P+](CCCC)(CCCC)CCCC.N[C@@H](CO)C(=O)[O-] [tetrabutylphosphonium L-serinate] 814.7
